target-or-test-system: T1, 4H687-bN
T1 chain: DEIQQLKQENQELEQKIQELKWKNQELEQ
test-details: two-hybrid library CCNG1;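 also: natural log of median RNA to DNA barcode read ratio; higher means stronger binding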
Each record's class is read off its interaction score using these ranges: lowest (below -1), middle (-1 to below -0.5), highest (-0.5 or more)

1. DEIQQLEQKNQELKQEIQELKWKIQELKQ [4H462-bN] : highest
2. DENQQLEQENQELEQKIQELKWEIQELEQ [4H1193-bN] : highest
3. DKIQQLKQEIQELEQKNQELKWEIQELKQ [4H2618-bN] : middle
4. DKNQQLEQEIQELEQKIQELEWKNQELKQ [4H3112-bN] : lowest
5. DEIQQLKQENQELEQKIQELKWKNQELEQ [4H687-bN] : middle
6. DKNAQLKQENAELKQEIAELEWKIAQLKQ [4H3782-bA] : highest
7. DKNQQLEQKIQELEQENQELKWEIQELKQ [4H3354-bN] : lowest
8. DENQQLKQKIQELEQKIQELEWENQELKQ [4H1828-bN] : middle
9. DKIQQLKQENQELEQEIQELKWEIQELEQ [4H2697-bN] : lowest
10. DKNQQLKQKNQELEQKIQELEWEIQELEQ [4H4001-bN] : lowest
11. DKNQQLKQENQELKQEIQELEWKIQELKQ [4H3782-bN] : highest
12. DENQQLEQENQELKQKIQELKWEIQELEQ [4H1257-bN] : lowest
13. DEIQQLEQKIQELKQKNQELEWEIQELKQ [4H370-bN] : lowest
14. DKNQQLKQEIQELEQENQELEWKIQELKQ [4H3606-bN] : highest
15. DKNQQLKQKIQELEQEIQELKWKNQELEQ [4H3855-bN] : lowest
16. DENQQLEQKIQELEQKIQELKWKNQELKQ [4H1328-bN] : highest
17. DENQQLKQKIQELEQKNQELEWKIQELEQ [4H1845-bN] : lowest
18. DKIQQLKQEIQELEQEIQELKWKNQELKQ [4H2576-bN] : middle
19. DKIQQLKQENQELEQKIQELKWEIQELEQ [4H2729-bN] : middle
20. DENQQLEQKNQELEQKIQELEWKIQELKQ [4H1446-bN] : highest
21. DKNQQLKQEIQELEQKIQELKWENQELKQ [4H3628-bN] : middle
22. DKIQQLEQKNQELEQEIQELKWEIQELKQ [4H2442-bN] : middle
23. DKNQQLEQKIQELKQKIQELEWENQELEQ [4H3427-bN] : middle
24. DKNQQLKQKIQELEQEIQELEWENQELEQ [4H3843-bN] : lowest
25. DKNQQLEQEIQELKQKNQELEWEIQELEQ [4H3185-bN] : lowest
26. DEIQQLKQEIQELKQENQELKWKNQELEQ [4H607-bN] : lowest
27. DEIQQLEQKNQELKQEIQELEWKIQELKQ [4H454-bN] : highest

The reported measurements were obtained from paper PMC10397247.
